test: Measurement of particle diameter distribution (laser diffraction, dry measurement, Mastersizer 2000); assay type: physicochemical; conditions: dry measurement, volume basis
Field: label. Allowed values: TRUE (Particle Diameter Distribution D90 < 40 μm) or FALSE (Particle Diameter Distribution D90 >= 40 μm).

Completed entries (count: 3):
# molecule, label-value
data = [
    ("O=C1c2ccccc2C(=O)N1[C@@H]1CC[C@@]2(O)[C@H]3Cc4ccc(O)c5c4[C@@]2(CCN3CC2CC2)[C@H]1O5 [Example 4]", "FALSE"),
    ("O=C1c2ccccc2C(=O)N1[C@@H]1CC[C@@]2(O)[C@H]3Cc4ccc(O)c5c4[C@@]2(CCN3CC2CC2)[C@H]1O5 [Comparative Example 4]", "FALSE"),
    ("O=C1c2ccccc2C(=O)N1[C@@H]1CC[C@@]2(O)[C@H]3Cc4ccc(O)c5c4[C@@]2(CCN3CC2CC2)[C@H]1O5 [Example 5]", "TRUE"),
]

Query block: Hi there! Is Particle Diameter Distribution D90 for O=C1c2ccccc2C(=O)N1[C@@H]1CC[C@@]2(O)[C@H]3Cc4ccc(O)c5c4[C@@]2(CCN3CC2CC2)[C@H]1O5 [Comparative Example 6] below 40 μm, do you know?
Result block: FALSE

Query block: Hi there! Is Particle Diameter Distribution D90 for O=C1c2ccccc2C(=O)N1[C@@H]1CC[C@@]2(O)[C@H]3Cc4ccc(O)c5c4[C@@]2(CCN3CC2CC2)[C@H]1O5 [Comparative Example 2] below 40 μm, do you know?
Result block: FALSE

Query block: Hi there! Is Particle Diameter Distribution D90 for O=C1c2ccccc2C(=O)N1[C@@H]1CC[C@@]2(O)[C@H]3Cc4ccc(O)c5c4[C@@]2(CCN3CC2CC2)[C@H]1O5 [Example 6] below 40 μm, do you know?
Result block: TRUE

Query block: Hi there! Is Particle Diameter Distribution D90 for O=C1c2ccccc2C(=O)N1[C@@H]1CC[C@@]2(O)[C@H]3Cc4ccc(O)c5c4[C@@]2(CCN3CC2CC2)[C@H]1O5 [Example 1] below 40 μm, do you know?
Result block: TRUE

###

test: Measurement of particle diameter distribution (laser diffraction, dry measurement, Mastersizer 2000); format: physicochemical; conditions: dry measurement, volume basis
readout: Particle Diameter Distribution D50 (μm)
// note: answer is a bare numeric in μm

Query block: Annotate the compound O=C1c2ccccc2C(=O)N1[C@@H]1CC[C@@]2(O)[C@H]3Cc4ccc(O)c5c4[C@@]2(CCN3CC2CC2)[C@H]1O5 [Comparative Example 4] with its measured Particle Diameter Distribution D50.
Result block: 17.1

Query block: Annotate the compound O=C1c2ccccc2C(=O)N1[C@@H]1CC[C@@]2(O)[C@H]3Cc4ccc(O)c5c4[C@@]2(CCN3CC2CC2)[C@H]1O5 [Comparative Example 5] with its measured Particle Diameter Distribution D50.
Result block: 19.2

Query block: Annotate the compound O=C1c2ccccc2C(=O)N1[C@@H]1CC[C@@]2(O)[C@H]3Cc4ccc(O)c5c4[C@@]2(CCN3CC2CC2)[C@H]1O5 [Comparative Example 2] with its measured Particle Diameter Distribution D50.
Result block: 64.0

Query block: Annotate the compound O=C1c2ccccc2C(=O)N1[C@@H]1CC[C@@]2(O)[C@H]3Cc4ccc(O)c5c4[C@@]2(CCN3CC2CC2)[C@H]1O5 [Example 4] with its measured Particle Diameter Distribution D50.
Result block: 14.6

Query block: Annotate the compound O=C1c2ccccc2C(=O)N1[C@@H]1CC[C@@]2(O)[C@H]3Cc4ccc(O)c5c4[C@@]2(CCN3CC2CC2)[C@H]1O5 [Example 9] with its measured Particle Diameter Distribution D50.
Result block: 11.5

###

The following compounds are shown together with reported Particle Diameter Distribution D50 values.
test: Measurement of particle diameter distribution (laser diffraction, dry measurement, Mastersizer 2000); assay type: physicochemical; conditions: dry measurement, volume basis

# compound, Particle Diameter Distribution D50
measured = [
    ("O=C1c2ccccc2C(=O)N1[C@@H]1CC[C@@]2(O)[C@H]3Cc4ccc(O)c5c4[C@@]2(CCN3CC2CC2)[C@H]1O5 [Example 3]", "9.89 μm"),
    ("O=C1c2ccccc2C(=O)N1[C@@H]1CC[C@@]2(O)[C@H]3Cc4ccc(O)c5c4[C@@]2(CCN3CC2CC2)[C@H]1O5 [Comparative Example 6]", "23.0 μm"),
]

The record that follows has no Particle Diameter Distribution D50 shown yet.
Query block: Annotate the compound O=C1c2ccccc2C(=O)N1[C@@H]1CC[C@@]2(O)[C@H]3Cc4ccc(O)c5c4[C@@]2(CCN3CC2CC2)[C@H]1O5 [Example 6] with its measured Particle Diameter Distribution D50.
Result block: 5.13 μm

###

assay: Check of crystalline state and measurement of degree of crystallinity by powder X-ray diffraction; assay type: physicochemical; conditions: powder X-ray diffraction, Xc=(Sc/(Sc+Sa))×100
readout: Degree of Crystallinity (%)
// note: answer is a bare numeric in %

Query block: Annotate the compound O=C1c2ccccc2C(=O)N1[C@@H]1CC[C@@]2(O)[C@H]3Cc4ccc(O)c5c4[C@@]2(CCN3CC2CC2)[C@H]1O5 [Example 5] with its measured Degree of Crystallinity.
Result block: 90

Query block: Annotate the compound O=C1c2ccccc2C(=O)N1[C@@H]1CC[C@@]2(O)[C@H]3Cc4ccc(O)c5c4[C@@]2(CCN3CC2CC2)[C@H]1O5 [Comparative Example 5] with its measured Degree of Crystallinity.
Result block: 71

Query block: Annotate the compound O=C1c2ccccc2C(=O)N1[C@@H]1CC[C@@]2(O)[C@H]3Cc4ccc(O)c5c4[C@@]2(CCN3CC2CC2)[C@H]1O5 [Example 9] with its measured Degree of Crystallinity.
Result block: 89

###

experiment: Check of crystalline state and measurement of degree of crystallinity by powder X-ray diffraction; assay type: physicochemical; settings: powder X-ray diffraction, Xc=(Sc/(Sc+Sa))×100
readout: Degree of Crystallinity (%)
// note: answer is a bare numeric in %

Guide cases for Degree of Crystallinity, answers given:
# compound, Degree of Crystallinity / %
measured = [
    ("O=C1c2ccccc2C(=O)N1[C@@H]1CC[C@@]2(O)[C@H]3Cc4ccc(O)c5c4[C@@]2(CCN3CC2CC2)[C@H]1O5 [Example 7]", 87),
    ("O=C1c2ccccc2C(=O)N1[C@@H]1CC[C@@]2(O)[C@H]3Cc4ccc(O)c5c4[C@@]2(CCN3CC2CC2)[C@H]1O5 [Example 3]", 94),
    ("O=C1c2ccccc2C(=O)N1[C@@H]1CC[C@@]2(O)[C@H]3Cc4ccc(O)c5c4[C@@]2(CCN3CC2CC2)[C@H]1O5 [Comparative Example 2]", 93),
    ("O=C1c2ccccc2C(=O)N1[C@@H]1CC[C@@]2(O)[C@H]3Cc4ccc(O)c5c4[C@@]2(CCN3CC2CC2)[C@H]1O5 [Example 8]", 92),
    ("O=C1c2ccccc2C(=O)N1[C@@H]1CC[C@@]2(O)[C@H]3Cc4ccc(O)c5c4[C@@]2(CCN3CC2CC2)[C@H]1O5 [Example 1]", 89),
]

Query block: Annotate the compound O=C1c2ccccc2C(=O)N1[C@@H]1CC[C@@]2(O)[C@H]3Cc4ccc(O)c5c4[C@@]2(CCN3CC2CC2)[C@H]1O5 [Comparative Example 1] with its measured Degree of Crystallinity.
Result block: 97

###

The following molecules are shown together with reported Particle Diameter Distribution D50 values.
assay: Measurement of particle diameter distribution (laser diffraction, dry measurement, Mastersizer 2000); type: physicochemical; settings: dry measurement, volume basis
// note: answer is a bare numeric in μm

Guide cases for Particle Diameter Distribution D50, answers given:
# molecule, Particle Diameter Distribution D50 (μm)
data = [
    ("O=C1c2ccccc2C(=O)N1[C@@H]1CC[C@@]2(O)[C@H]3Cc4ccc(O)c5c4[C@@]2(CCN3CC2CC2)[C@H]1O5 [Example 2]", 6.23),
    ("O=C1c2ccccc2C(=O)N1[C@@H]1CC[C@@]2(O)[C@H]3Cc4ccc(O)c5c4[C@@]2(CCN3CC2CC2)[C@H]1O5 [Example 5]", 7.83),
]

Query block: Annotate the molecule O=C1c2ccccc2C(=O)N1[C@@H]1CC[C@@]2(O)[C@H]3Cc4ccc(O)c5c4[C@@]2(CCN3CC2CC2)[C@H]1O5 [Example 8] with its measured Particle Diameter Distribution D50.
Result block: 11.8

###

The following compounds are shown together with reported Degree of Crystallinity values.
experiment: Check of crystalline state and measurement of degree of crystallinity by powder X-ray diffraction; assay type: physicochemical; settings: powder X-ray diffraction, Xc=(Sc/(Sc+Sa))×100
// note: answer is a bare numeric in %

Guide cases for Degree of Crystallinity, answers given:
# compound, Degree of Crystallinity, %
measured = [
    ("O=C1c2ccccc2C(=O)N1[C@@H]1CC[C@@]2(O)[C@H]3Cc4ccc(O)c5c4[C@@]2(CCN3CC2CC2)[C@H]1O5 [Comparative Example 6]", 61),
    ("O=C1c2ccccc2C(=O)N1[C@@H]1CC[C@@]2(O)[C@H]3Cc4ccc(O)c5c4[C@@]2(CCN3CC2CC2)[C@H]1O5 [Comparative Example 4]", 82),
    ("O=C1c2ccccc2C(=O)N1[C@@H]1CC[C@@]2(O)[C@H]3Cc4ccc(O)c5c4[C@@]2(CCN3CC2CC2)[C@H]1O5 [Example 4]", 96),
]

The record that follows has no Degree of Crystallinity shown yet.
Query block: Annotate the compound O=C1c2ccccc2C(=O)N1[C@@H]1CC[C@@]2(O)[C@H]3Cc4ccc(O)c5c4[C@@]2(CCN3CC2CC2)[C@H]1O5 [Example 2] with its measured Degree of Crystallinity.
Result block: 89

Numbers sourced from patent US8198446B2.
